Tested on: BT-549 breast
Test: NCI-60 one-dose screen, 48 h
Settings: 10 µM unless noted
This is part of a sample that, as a whole, favours compounds with a hit. Of some 83,000 tested, about 20% had one in any assay. Activity calls are given as the source filed them. Rule for the calls: active = growth percent below 10; inactive = the rest.
Assign a class; possible classes are active, inactive

Examples with answers:
MOLECULE	GROUP
Cc1ccc(C(=O)Nc2ccc(-n3ccnc3)c(C(F)(F)F)c2)cc1C#Cc1cnc2cccnn12	active
COc1ccc(NC(=O)N/N=C/c2c[nH]c3ccccc23)cc1	inactive
O=C(Nc1ccc(F)cc1)Nc1nc2ccc([N+](=O)[O-])cc2s1	active

[ask] Check the results log: what was the call for O=C1N/C(=N\c2nccs2)S/C1=C\c1ccc([N+](=O)[O-])cc1 ?
[reply] inactive

[ask] Check the results log: what was the call for CN(C)c1nc(NCCNS(=O)(=O)c2ccc(C3=Nc4c(N)nc(N)nc4NC(c4ccc(C(F)(F)F)cc4)C3)cc2)nc(N2CCOCC2)n1 (centres undefined) ?
[reply] active

[ask] Check the results log: what was the call for O=C(CSc1nnc(-c2ccc(-c3nc4ccc(Cl)cc4[nH]3)cc2)o1)Nc1ccc(Br)cc1 ?
[reply] active

[ask] Check the results log: what was the call for COc1ccc2c(c1)C(=O)N(C)C2C1c2c(cc3c(c2OC)OCO3)CCN1C (centres undefined) ?
[reply] inactive

[ask] Check the results log: what was the call for NS(=O)(=O)c1ccc(Nc2nc(SCC(=O)c3ccc(F)cc3)nc3ccccc23)cc1 ?
[reply] inactive

[ask] Check the results log: what was the call for CCC1(OC(=O)c2ccccc2SSCCOC(=O)CCCCC2SCC3NC(=O)NC32)C(=O)OCc2c1cc1n(c2=O)Cc2cc3ccccc3nc2-1 (centres undefined) ?
[reply] inactive

###

System: TK-10 renal
Assay: NCI-60 one-dose screen, 48 h
Details: 10 µM unless noted
The panel holds about 83,000 compounds, 20% with a hit somewhere; the sample as a whole holds those more often. Calls of active or inactive are those of the source. Rule for the calls: active = growth percent below 10; inactive = the rest.
Assign a class; possible classes are label 1 for active, label 0 for inactive

Examples with answers:
ENTRY SMILES	GROUP
COC(=O)CSC1=C(C)C(=O)C(OC)=C(OC)C1=O	label 0
Cc1ccc(S(=O)(=O)Nc2ccc(-c3ccc4c(c3)NC(=O)/C4=C\c3ccc[nH]3)cc2)cc1	label 0
Clc1ccc2c(NCCNC34CC5CC(CC(C5)C3)C4)ccnc2c1	label 1

Let's switch to this compound now.
[ask] Check the results log: what was the call for C#CCCCNCCNc1ccnc2cc(Cl)ccc12 ?
[reply] label 0

###

Tested on: NCI-H226 lung
Experiment: NCI-60 one-dose screen, 48 h (100 = growth as untreated, 0 = no growth, -100 = all killed)
Details: 10 µM unless noted
This is part of a sample that, as a whole, favours compounds with a hit. Of some 83,000 tested, about 20% had one in any assay.
MEASUREMENT LABEL: growth (%)
Report as a plain number; the unit % is understood.

Before answering, review these 4 worked examples.
COMPOUND	ASSAYED SYSTEM	growth, %
O=C(Nc1ccc(Br)cc1)Nc1ccc(-c2ccc3c(c2)NC(=O)/C3=C\c2ccc[nH]2)cc1	NCI-H226 lung	66.2
COc1ccc(Nc2ncnc3sc4c(c23)CCN(Cc2ccccc2)C4)cc1	NCI-H226 lung	84.3
Cc1ccc(C(=O)Nc2cccc(C(=O)NC(=S)Nc3ccc(S(N)(=O)=O)cc3)c2)cc1	NCI-H226 lung	67.5
COc1ccccc1NC(=O)c1ccc(NC(=O)CCl)s1	NCI-H226 lung	-34.6

[ask] growth for CC(=O)C[n+]1cccc2c3ccccc3ccc21 ?
[reply] 97

[ask] growth for COc1ccc(N=Nc2c(N)nn3c(-c4ccc5c(c4)C=S=C5)ccnc23)cc1 ?
[reply] 22.8

[ask] growth for CC1=C(C(=O)OC(C)C)C(c2ccc(O)cc2)NC(=O)N1 (configuration not stated) ?
[reply] 105
